Numbers sourced from PubChem BioAssay AID1745844.

system: rodent lifetime carcinogenesis bioassay, tumor incidence TD50; assay: carcinogenic potency in animals, long-term in vivo studies, CPDB compilation (AID 1745844); details: rat; strain Sprague-Dawley; males; in drinking water; site: liver; lesion: hepatocellular adenocarcinoma; dosed 118 weeks; study length 147 weeks
property: TD50

rodent lifetime carcinogenesis bioassay, tumor incidence TD50 assay, molecule `O=NN(CCO)CCO` , recorded TD50 = 9.51 mg/kg/day

---

test system: rodent lifetime carcinogenesis bioassay, tumor incidence TD50; experiment: carcinogenic potency in animals, long-term in vivo studies, CPDB compilation (AID 1745844); settings: mouse; strain Swiss albino; males; by gavage; site: preputial gland; lesion: several types; types named in the paper; dosed 53 weeks; study length 119 weeks
property: TD50

Lookup result for `CC(C)C/C=N/N(C)C=O` ; measured TD50: 4.36 mg/kg/day

---

This section presents compounds with their documented TD50 values.
tested on: rodent lifetime carcinogenesis bioassay, tumor incidence TD50; test: carcinogenic potency in animals, long-term in vivo studies, CPDB compilation (AID 1745844); conditions: mouse; strain B6C3F1; males; in feed; site: lung; lesion: alveolar/bronchiolar adenoma; dosed 104 weeks; study length 105 weeks
Answer with a number only, understood to be in mg/kg/day.

Data point: `OCC(CO)(CBr)CBr` ; TD50 = 270

Kindly note the recorded TD50 for `Nc1ccc(N)c2c1C(=O)c1c(N)ccc(N)c1C2=O` , which is 925

---

system: rodent lifetime carcinogenesis bioassay, tumor incidence TD50; experiment: carcinogenic potency in animals, long-term in vivo studies, CPDB compilation (AID 1745844); details: mouse; strain B6C3F1; males; oral dosing; site: all sites; lesion: reticulum-cell sarcoma; dosed 76 weeks; study length 76 weeks
Calls of active or inactive are those of the source. How the calls were made is not given here.
Recorded TD50 by entry

# TD50 measured on rodent lifetime carcinogenesis bioassay, tumor incidence TD50 for item COC(C(=O)O)c1ccccc1 (stereo not given) = 82.1 mg/kg/day (inactive)

---

system: rodent lifetime carcinogenesis bioassay, tumor incidence TD50; assay: carcinogenic potency in animals, long-term in vivo studies, CPDB compilation (AID 1745844); conditions: rat; strain Osborne-Mendel; females; in feed; site: liver; lesion: hepatocellular adenoma + hepatocellular carcinoma + neoplastic nodule; dosed 80 weeks; study length 113 weeks
property: TD50
Answers without a unit are incomplete; give the number and then its unit.

Entry under test: `Nc1c(Cl)c(Cl)nc(C(=O)O)c1Cl` . Its TD50 was 1640 mg/kg/day

---

test system: rodent lifetime carcinogenesis bioassay, tumor incidence TD50; assay: carcinogenic potency in animals, long-term in vivo studies, CPDB compilation (AID 1745844); settings: hamster; strain Syrian Golden; females; by gavage; site: any site (literature study); lesion: several types; types named in the paper; dosed 59 weeks; study length 83 weeks
property: TD50

Field TD50 (rodent lifetime carcinogenesis bioassay, tumor incidence TD50), entry CC1CN(N=O)CC(C)O1 (stereo unspecified) : 1.55 mg/kg/day

---

system: rodent lifetime carcinogenesis bioassay, tumor incidence TD50; assay: carcinogenic potency in animals, long-term in vivo studies, CPDB compilation (AID 1745844); conditions: mouse; strain dd; females; in feed; site: any site (literature study); lesion: malignant tumor; dosed 104 weeks; study length 104 weeks
property: TD50 (mg/kg/day)
Numbers only; they are read as mg/kg/day.

TD50 measured on `Nc1cc(Cl)c(-c2cc(Cl)c(N)cc2Cl)cc1Cl` = 87.2
